# SYSTEM NAME: Dickkopf-related protein 1 (Homo sapiens) (UniProt O94907)
# Sequence (O94907 whole entry, looked up): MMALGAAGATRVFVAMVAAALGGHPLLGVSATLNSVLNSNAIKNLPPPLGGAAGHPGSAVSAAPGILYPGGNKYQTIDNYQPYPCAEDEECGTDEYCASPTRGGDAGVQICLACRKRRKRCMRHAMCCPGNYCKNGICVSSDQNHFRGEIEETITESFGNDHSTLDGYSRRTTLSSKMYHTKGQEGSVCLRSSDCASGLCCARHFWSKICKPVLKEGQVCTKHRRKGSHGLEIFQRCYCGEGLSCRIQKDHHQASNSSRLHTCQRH
# PROTOCOL: DKK1 binders on small-molecule microarrays, primary screen, biochemical, small-molecule microarray, 635 nm fluorescence scan (AID 1106);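 further: score merges emission near 667 nm with signal to noise over three replicate slides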
# MEASUREMENT CONDITIONS: DKK1 binding, higher = more signal
VALUE KIND: composite z-score

| COMPOUND | SYSTEM NAME | VALUE KIND | MEAS VALUE |
| --- | --- | --- | --- |
| O=c1cccc(-c2ccc(C(F)(F)F)cc2)o1 | Dickkopf-related protein 1 (Homo sapiens) (UniProt O94907) | composite z-score | -0.572 |
| C[C@H]1ON(c2ccc(C(=O)OC(C)(C)C)cc2)[C@@H](c2ccc(O)cc2)[C@@H]1C(=O)N1C(=O)OC[C@@H]1c1ccccc1 | Dickkopf-related protein 1 (Homo sapiens) (UniProt O94907) | composite z-score | 0.624 |
| COc1ccc([Si](C)(C)[C@@H]2[C@@H](CC(=O)N3CCC[C@H]3CO)O[C@]3(C(=O)N(Cc4ccc(N5C(=O)c6cccc7cccc5c67)cc4)c4ccccc43)[C@H]2C)cc1 | Dickkopf-related protein 1 (Homo sapiens) (UniProt O94907) | composite z-score | 0.587 |
| COC(=O)[C@@]1(Cc2ccc(OC)cc2)[C@H]2c3cc(C(=O)N(C)C)n(Cc4ccccc4)c3C[C@H]2CN1C(=O)c1ccccc1 | Dickkopf-related protein 1 (Homo sapiens) (UniProt O94907) | composite z-score | -0.128 |
| CC(C)(C)OC(=O)CC[C@]1(C(=O)N2CCOCC2)N=C(c2ccc(OCCCO)cc2)O[C@H]1c1ccccc1 | Dickkopf-related protein 1 (Homo sapiens) (UniProt O94907) | composite z-score | -0.158 |
| C[C@H]1C2=C3C(CC[C@H]4C(OCc5ccc(F)cc5C(F)(F)F)OC[C@](C)([C@@H]34)N(C(=O)OC(C)(C)C)C2)C(CO)C1CO (stereo not given in full) | Dickkopf-related protein 1 (Homo sapiens) (UniProt O94907) | composite z-score | -0.461 |
| Cc1ccc(F)cc1S(=O)(=O)N[C@@H]1CCN(Cc2ccc(OC(C)C)cc2)C1 | Dickkopf-related protein 1 (Homo sapiens) (UniProt O94907) | composite z-score | 0.183 |
| COCCOC(=O)N1C(=O)[C@@]2(c3cc(C#Cc4ccc(OC)cc4)ccc31)[C@H](C(=O)NC[C@H](O)c1ccccc1)[C@H]1C(=O)O[C@H](c3ccccc3)[C@H](c3ccccc3)N1[C@@H]2c1ccc(O)cc1 | Dickkopf-related protein 1 (Homo sapiens) (UniProt O94907) | composite z-score | 0.95 |
| O=C1O[C@@H](c2ccccc2)[C@@H](c2ccccc2)N2[C@@H](c3ccc(O)cc3)[C@]3(C(=O)Nc4ccccc43)[C@@H](C(=O)Nc3nc4ccccc4s3)[C@H]12 | Dickkopf-related protein 1 (Homo sapiens) (UniProt O94907) | composite z-score | 0.065 |
| COc1ccc([Si](C)(C)[C@H]2[C@H](CC(=O)N3Cc4ccccc4C[C@H]3CO)O[C@@]3(C(=O)N(Cc4cccc(N5CCCCC5=O)c4)c4ccccc43)[C@@H]2C)cc1 | Dickkopf-related protein 1 (Homo sapiens) (UniProt O94907) | composite z-score | 1.12 |

----------
# Tested on: Fibrinogen (Alexa647-labelled)
# PROTOCOL: fibrinogen binders on compound microarrays, profiling panel, artefact control for SMM control-protein annotation, biochemical, small-molecule microarray, 635/667 nm fluorescence (AID 1131);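 further: z-score merges 667 nm fluorescence with per-spot signal-to-noise over triplicate slides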
# MEASUREMENT CONDITIONS: fibrinogen-A647 binding fluorescence, higher = more signal
Record 1 whenever composite z-score is at 0.7 or higher; record 0 when lower.

| MOLECULE | CATEGORY LABEL |
| --- | --- |
| COC(=O)c1c(CC[C@@H](CO)NC(=O)N[C@H](Cn2cc(-c3ccccc3C)nn2)C(C)C)oc(C(C)=O)c1C(=O)OC | 0 |
| CCCc1cccc(=O)o1 | 1 |
| COc1cc(CO)cc(I)c1O[C@H]1C=C(C(=O)NCCO)C[C@@H](NCc2ccccc2F)[C@@H]1O | 0 |
| CCCC[C@@H]1C[C@H]1[C@@H](NC(=O)c1ccccc1)c1ccc(Cl)cc1 | 0 |
| O=C(O)[C@H](Cc1ccccc1)n1cc(-c2ccccn2)nn1 | 1 |
| C=CCN1Cc2ccccc2C[C@@]2(N=C(c3ccc(OCCCO)cc3)O[C@H]2c2ccccc2)C1=O | 1 |
| COc1cc(OC)c(C(O)C2C=CC3C(=O)N(c4ccccc4)C(=O)C3N2Nc2ccc(C#N)cc2)cc1Br (configuration not stated) | 0 |

----------
# PROTOCOL: A549 lung cancer cell viability effects, profiling panel, resazurin fluorescence, 24 h, PK04 Diversity Set (AID 1171); further: test concentration not given here
# MEASUREMENT CONDITIONS: higher = more signal, called active from +8 up or from −8 down

| SMILES CODE | z-score |
| --- | --- |
| CC(C)(C)OC(=O)CC[C@]1(C(=O)N2CCOCC2)N=C(c2ccc(OCCCO)cc2)O[C@H]1c1ccccc1 | -0.743 |
| C=CC[C@@]1(C(=O)O)N=C(c2ccc(OCCCO)cc2)O[C@@H]1c1ccccc1 | 0.353 |
| Cc1ccc(S[C@]2(C(=O)O)CC(=O)N(Cc3ccccc3Cl)[C@@H]2c2ccc(CO)cc2)cc1 | -0.462 |
| CCCNC(=O)[C@@]1(c2ccc([N+](=O)[O-])cc2)CC(=O)N(C2CCCCC2)[C@@H]1c1ccc(CO)cc1I | 0.72 |

----------
# SYSTEM NAME: Torsin-1A (Homo sapiens)
# PROTOCOL: small-molecule binders of mutant TOR1A in lysate, primary screen, cell lysate, small-molecule microarray, COS7 lysate, 635/667 nm fluorescence (AID 1150);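 further: score pools 667 nm emission and signal to noise measuring lysate protein binding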
# MEASUREMENT CONDITIONS: COS7 hTOR1A mutant lysate, 635 nm fluorescence, higher = more signal

| COMPOUND | composite z-score |
| --- | --- |
| O=C1OC[C@@H](c2ccccc2)N2CC(/C=C/c3ccccc3)=CC12 (some centres undefined) | -1.31 |
| COC(=O)[C@@]1(Cc2ccc(F)cc2)[C@H]2c3cc(C(=O)N4CCCC4)n(CCc4c[nH]c5ccc(OC)cc45)c3C[C@H]2CN1C(=O)c1ccccc1 | 0.736 |
| O=C1OCC=C[C@H]2OC34C=CCN(Cn5nnc6ccccc65)C(=O)[C@H]3N(CCCCCCO)C(=O)[C@@H]4[C@@H]12 (some centres undefined) | -0.416 |
| CC[C@H]1C2=C3C(CC[C@H]4C(OCc5ccc(F)cc5C(F)(F)F)OC[C@](C)([C@@H]34)N(C(=O)OC(C)(C)C)C2)C2COC(=O)OCC21 (some centres undefined) | 0.666 |

----------
# PROTOCOL: FRG1 promoter luciferase signal modulators, primary screen, FRG1 inhibition for FSHD, cell-based, C2C12 myotubes, firefly/Renilla luciferase, luminescence (AID 1084)
# MEASUREMENT CONDITIONS: higher = more signal, called active from +8 up or from −8 down
VALUE KIND: z-score

| COMPOUND | MEAS VALUE |
| --- | --- |
| C=CC[C@@]12N=C(c3ccc(OCCCO)cc3)O[C@@H]1c1ccccc1N(CCS(=O)(=O)c1ccccc1)C2=O | 0.601 |
| Cc1ccc(C(C)CC(O)C2C=CC3C(=O)N(c4ccccc4)C(=O)C3N2Nc2ccc(C(C)C)cc2)o1 (centres undefined) | 0.543 |
| C=C(C(=O)CC[C@H](OC(C)=O)c1cccc(OCCO)c1)C(C)C | 0.422 |
| COC(=O)Cn1c(C(=O)N2CCCC2)cc2c1C[C@H]1CN(C(=O)c3ccccc3)[C@@](Cc3ccc(F)cc3)(C(=O)OC)[C@@H]21 | -0.566 |

----------
# SYSTEM NAME: Calmodulin-1 (Homo sapiens)
# PROTOCOL: calcium-bound CALM1 binders on microarrays, profiling panel, artefact control for SMM control-protein annotation, biochemical, small-molecule microarray, Cy5-labelled CALM1, plus calcium (AID 1112);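 further: score merges spot fluorescence with signal to noise from triplicate slides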
# MEASUREMENT CONDITIONS: Cy5-CALM1 binding fluorescence, higher = more signal

| MOLECULE | composite z-score |
| --- | --- |
| CC(=O)n1cc(C(O)C2C=CC3C(=O)N(c4ccccc4)C(=O)C3N2Nc2ccccc2)c2ccccc21 (centres undefined) | 0.671 |
| [N-]=[N+]=Nc1ccccc1[C@@H]1OC(c2ccc(OCCCO)cc2)=N[C@]1(CCS(=O)(=O)c1ccccc1)C(=O)NCCN1CCOCC1 | 0.0093 |
| COC(=O)C[C@H]1O[C@]2(C(=O)N(C)c3ccccc32)[C@@H](C)[C@@H]1[Si](C)(C)c1ccc(C)cc1 | -0.0787 |
| C=CCNC(=O)[C@@H]1[C@H]2C(=O)O[C@H](c3ccccc3)[C@H](c3ccccc3)N2[C@H](c2ccc(OCCO)cc2)[C@@]12C(=O)N(C(=O)OCCOC)c1ccc(C#CC3=CCCCC3)cc12 | 0.283 |
